- subject_of_test: human PAH with the R408W mutation (Homo sapiens, UniProt P00439, R408W)
- Construct: expressed in transfected cells
- Sequence (P00439 whole entry R408W): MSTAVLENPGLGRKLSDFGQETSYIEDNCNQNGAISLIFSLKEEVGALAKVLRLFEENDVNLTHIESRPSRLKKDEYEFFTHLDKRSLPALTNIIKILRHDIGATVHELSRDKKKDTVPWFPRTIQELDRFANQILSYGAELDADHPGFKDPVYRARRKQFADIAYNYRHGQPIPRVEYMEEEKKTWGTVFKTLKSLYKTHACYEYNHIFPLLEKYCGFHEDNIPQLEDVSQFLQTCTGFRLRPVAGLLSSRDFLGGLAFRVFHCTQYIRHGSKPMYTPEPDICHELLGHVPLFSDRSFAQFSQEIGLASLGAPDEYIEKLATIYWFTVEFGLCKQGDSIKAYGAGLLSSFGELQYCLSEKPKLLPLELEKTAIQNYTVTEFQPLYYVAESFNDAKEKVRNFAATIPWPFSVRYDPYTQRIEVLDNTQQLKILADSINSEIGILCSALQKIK
- protocol_description: Cell Based Phenylalanine Flux Assay
- settings: A375 cells expressing human R408W PAH; 24 hrs compound incubation; 13C-Tyrosine by LC-MS; average where tested multiple times; read-out: AC50
measured_endpoint: AC50

Sure, the documented AC50 for Cc1cccc2sc([C@@H]3c4nc[nH]c4CCN3C(=O)c3ncnn3C)nc12 [Example 2015] is 500 to 1000 nM

Sure, the documented AC50 for O=C(c1cnc(-c2ncccc2F)s1)N1CCc2[nH]cnc2[C@H]1c1nc2ccccc2s1 [Example 1373] is < 500 nM

Sure, the documented AC50 for O=C(c1nnc(N2CCC(F)CC2)o1)N1CCc2[nH]cnc2[C@@H]1c1nc2ccccc2s1 [Example 1592] is 1000 to 5000 nM

Sure, the documented AC50 for O=C(c1nc(Cl)cs1)N1CCc2[nH]cnc2[C@H]1c1nc2cc(F)ccc2s1 [Example 1297] is 500 to 1000 nM

Sure, the documented AC50 for O=C(c1cnn2cc(Cl)ccc12)N1CCc2[nH]cnc2[C@H]1c1nc2c(F)cccc2s1 [Example 1237] is 500 to 1000 nM

Sure, the documented AC50 for O=C(c1cnn2ccccc12)N1CCc2nc[nH]c2[C@H]1c1nc2c(F)cccc2s1 [Example 1111] is 500 to 1000 nM

Sure, the documented AC50 for O=C(c1cnn2ccccc12)N1CCc2[nH]cnc2[C@H]1c1nc2c(Br)cccc2s1 [Example 1241] is 500 to 1000 nM

Sure, the documented AC50 for O=C(c1oc(C2CC(F)(F)C2)nc1C(F)F)N1CCc2[nH]cnc2[C@H]1c1nc2ccccc2s1 [Example 1786] is < 500 nM

Sure, the documented AC50 for Cn1nccc1-c1nnc(C(=O)N2CCc3[nH]cnc3[C@@H]2c2nc3ccccc3s2)o1 [Example 1946] is 1000 to 5000 nM

Sure, the documented AC50 for O=C(c1ccccc1)N1CCc2[nH]cnc2[C@H]1c1nc2ccccc2s1 [Example 1065] is < 500 nM

Sure, the documented AC50 for O=C(CC1(O)CCC1)N1CCc2[nH]cnc2[C@@H]1c1nc2ccccc2s1 [Example 1658] is 500 to 1000 nM

Sure, the documented AC50 for O=C(c1oc(C2(O)CCC2)nc1C(F)(F)F)N1CCc2[nH]cnc2[C@H]1c1nc2c(F)cccc2s1 [Example 1637] is < 500 nM

Sure, the documented AC50 for O=C(c1ccno1)N1CCc2[nH]cnc2[C@H]1c1nc2ccccc2s1 [Example 1123] is 500 to 1000 nM

Sure, the documented AC50 for O=C(c1oc(-c2ccc(F)cn2)nc1C(F)F)N1CCc2[nH]cnc2[C@H]1c1nc2ccccc2s1 [Example 1746] is < 500 nM

Sure, the documented AC50 for C[C@@H](O)c1nc(C(F)F)c(C(=O)N2CCc3[nH]cnc3[C@@H]2c2nc3ccccc3s2)o1 [Example 2092] is 500 to 1000 nM

Sure, the documented AC50 for O=C(Cc1ncc(C2CC2)s1)N1CCc2[nH]cnc2[C@@H]1c1nc2ccccc2s1 [Example 1460] is 1000 to 5000 nM

Sure, the documented AC50 for O=C(c1ocnc1-c1ccccn1)N1CCc2[nH]cnc2[C@H]1c1nc2ccccc2s1 [Example 1450] is 500 to 1000 nM

Sure, the documented AC50 for Cn1cc(-c2nnc(C(=O)N3CCc4[nH]cnc4[C@@H]3c3nc4c(F)cccc4s3)o2)c(C(F)(F)F)n1 [Example 1928] is 1000 to 5000 nM

Sure, the documented AC50 for N#Cc1nc(N2CCOCC2)oc1C(=O)N1CCc2[nH]cnc2[C@@H]1c1nc2ccccc2s1 [Example 1706] is > 5000 nM

Sure, the documented AC50 for Cc1nc(C(C)(C)C)oc1C(=O)N1CCc2[nH]cnc2[C@@H]1c1nc2ccccc2s1 [Example 1432] is 1000 to 5000 nM

Sure, the documented AC50 for CCc1ccc2c(C(=O)N3CCc4[nH]cnc4[C@H]3c3nc4ccccc4s3)cnn2c1 [Example 1243] is 1000 to 5000 nM

Sure, the documented AC50 for O=C(c1scnc1Cl)N1CCc2[nH]cnc2[C@H]1c1nc2c(F)cccc2s1 [Example 1640] is 500 to 1000 nM

Sure, the documented AC50 for CC(C)(O)c1ncc(C(=O)N2CCc3[nH]cnc3[C@H]2c2nc3c(F)cccc3s2)s1 [Example 1477] is < 500 nM

Sure, the documented AC50 for O=C(CCC1CC1)N1CCc2[nH]cnc2[C@H]1c1nc2ccc(F)cc2s1 [Example 1093] is 500 to 1000 nM

Sure, the documented AC50 for O=C(CC1CC1)N1CCc2[nH]cnc2[C@@H]1c1nc2ccccc2[nH]1 [Example 1000] is 1000 to 5000 nM

Sure, the documented AC50 for Cn1nccc1C(=O)N1CCc2[nH]cnc2[C@H]1c1nc2c(F)cccc2s1 [Example 1603] is 1000 to 5000 nM

Sure, the documented AC50 for O=C(CCC1CCCC1)N1CCc2[nH]cnc2[C@@H]1c1nc2ccccc2[nH]1 [Example 912] is > 5000 nM

Sure, the documented AC50 for CC(F)(F)c1ncoc1C(=O)N1CCc2[nH]cnc2[C@@H]1c1nc2c(F)cccc2s1 [Example 2008] is 1000 to 5000 nM

Sure, the documented AC50 for N#Cc1nc(OCCC(F)(F)F)oc1C(=O)N1CCc2[nH]cnc2[C@@H]1c1nc2ccccc2s1 [Example 1673] is > 5000 nM

Sure, the documented AC50 for Cn1cc(C(=O)N2CCc3[nH]cnc3[C@H]2c2nc3c(F)cccc3s2)c(Cl)n1 [Example 1644] is < 500 nM

Sure, the documented AC50 for O=C(c1cnc(-c2ccnc(C(F)(F)F)c2)s1)N1CCc2[nH]cnc2[C@H]1c1nc2ccccc2s1 [Example 1403] is 500 to 1000 nM

Sure, the documented AC50 for O=C(c1ocnc1-c1ccccn1)N1CCc2[nH]cnc2[C@@H]1c1nc2c(F)cccc2s1 [Example 1524] is > 5000 nM

Value source: patent US20250171438A1
